- system.tested: fMet-Leu-Phe receptor (Homo sapiens)
- Sequence (P21462 whole entry): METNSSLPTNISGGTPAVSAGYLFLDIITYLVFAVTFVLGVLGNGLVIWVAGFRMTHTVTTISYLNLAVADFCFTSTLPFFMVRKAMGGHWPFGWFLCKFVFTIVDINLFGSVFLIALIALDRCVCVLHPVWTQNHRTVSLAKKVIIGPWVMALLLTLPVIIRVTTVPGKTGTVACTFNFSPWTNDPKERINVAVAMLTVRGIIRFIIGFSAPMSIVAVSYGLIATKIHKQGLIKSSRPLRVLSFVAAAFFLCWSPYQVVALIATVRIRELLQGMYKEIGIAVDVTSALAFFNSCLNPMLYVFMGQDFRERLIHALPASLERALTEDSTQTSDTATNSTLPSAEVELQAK
- test.description: Agonist activity at human FPR1 expressed in HEK 293 cells co-expressing Galpha15 measured every 1.5 sec for 80 sec by Fluo-4 NW staining based scanning fluorometric method
- Assay type: cell-based, HEK293
reported.property: EC50 (nM)

1) COc1cc(F)c([C@@H]2CNC(=O)[C@H]2NC(=O)Nc2ccccc2)c(F)c1 : 2800
2) COc1cc(F)c([C@@H]2CNC(=O)[C@H]2NC(=O)Nc2ccc(Cl)s2)c(F)c1 : 1200
3) O=C(Nc1ccc(F)cc1)N[C@@H]1C(=O)NC[C@H]1c1ccc(Cl)cc1F : 29
4) COc1cc(F)c([C@@H]2CNC(=O)[C@H]2NC(=O)Nc2ccc(C)c(O)c2)c(F)c1 : 1000
5) COc1cc(F)c([C@@H]2CNC(=O)[C@H]2NC(=O)Nc2ccc(F)c(O)c2)c(F)c1 : 72
6) COc1cc(F)c([C@@H]2CNC(=O)[C@H]2NC(=O)Nc2ccc(Cl)c(O)c2)c(F)c1 : 40

* * *

- system.tested: UniProt:P21462
- test.description: Agonist activity at human FPR1 expressed in HEK 293 cells co-expressing Galpha15 measured every 1.5 sec for 80 sec by Fluo-4 NW staining based scanning fluorometric method
- Type: cell-based, HEK293
Listing: EC50 of selected molecules
reported.property: EC50

1. COc1ccc(CC(NC(=O)Nc2ccc(Cl)cc2)C(N)=O)cc1 (racemic) : > 10 µM
2. COc1ccc([C@@H]2NC(=O)[C@@H]2NC(=O)Nc2ccc(Cl)cc2)cc1 (racemic) : > 10 µM
3. COc1ccc([C@@H]2NC(=O)[C@H]2NC(=O)Nc2ccc(Cl)cc2)cc1 (racemic) : > 10 µM
